- Assay type: in vitro ADME
- Run Conditions: extraction ratio, compound at 1 uM, SD rat liver microsomes 0.5 mg/mL
# note: boundary value 0.2 maps to N; Liver Microsomal Stability (ER) SD rat below it maps to Y

1) CC(C)C[C@H](NC(=O)C(F)F)C(=O)N1C[C@H]2[C@@H]([C@H]1C(=O)N[C@H](C=O)C[C@@H]1CCNC1=O)C2(C)C | Y
2) CC(C)(C)[C@H](NC(=O)C1CC1)C(=O)N1C[C@H]2[C@@H]([C@H]1C(=O)N[C@H](C#N)C[C@@H]1CCNC1=O)C2(C)C | Y
3) CC(C)C[C@H](CC(=O)[C@@H](NC(=O)OCc1ccccc1)[C@@H](C)OC(C)(C)C)C(=O)N[C@H](C=O)C[C@@H]1CCNC1=O | N
4) CC(C)C[C@H](NC(=O)c1cc2ccccc2[nH]1)C(=O)N1C[C@H]2[C@@H]([C@H]1C(=O)N[C@H](C=O)C(C)(C)C)C2(C)C | N
5) CC(C)C[C@H](NC(=O)c1cc2ccccc2[nH]1)C(=O)N1C[C@H]2[C@@H]([C@H]1C(=O)N[C@@H](C[C@@H]1CCNC1=O)C(=O)CCl)C2(C)C | N

----------
- Test system: SARS-CoV-2 Omicron
- Protocol Details: FRNT assay in Vero E6 cells
- Format: cell-based
- Run Conditions: Severe acute respiratory syndrome coronavirus 2, Vero C1008, 24 h
pEC50: −log10 of the molar value.
Metric: pEC50

1) CC(C)C[C@H](NC(=O)c1cc2ccccc2[nH]1)C(=O)N[C@@H](C[C@@H]1CCNC1=O)C(O)S(=O)(=O)[O-].[Na+] (stereo partly shown) [Compound A-1-d] | 6.44

----------
- Type: in vitro ADME
- Run Conditions: extraction ratio, compound at 1 uM, beagle dog liver microsomes 0.5 mg/mL
Records here are stratified by Liver Microsomal Stability (ER) Beagle dog; strata: Low (below 0.05), Mid (0.05 to below 0.2), High (0.2 or more)

1) Cc1cccc2[nH]c(C(=O)N[C@@H](CC(C)C)C(=O)N[C@@H](C[C@@H]3CCNC3=O)C(=O)CO)cc12 [Compound A-4-d] | Mid
2) CC(C)(C)[C@H](NC(=O)C(F)(F)F)C(=O)N[C@@H](CC1CCCCC1)C(=O)N[C@H](C#N)C[C@@H]1CCNC1=O [Compound D-4-a] | High
3) C=CC(=O)N[C@H](C[C@@H]1CCNC1=O)NC(=O)[C@H](CC(C)C)NC(=O)OCc1ccccc1 [Compound B-1-f] | Low
4) C=CC(=O)N[C@H](C[C@@H]1CCNC1=O)NC(=O)[C@@H]1[C@@H]2[C@H](CN1C(=O)[C@@H](NC(=O)C(F)(F)F)C(C)(C)C)C2(C)C [Compound D-1-e] | Low
5) Cc1cccc2[nH]c(C(=O)N[C@@H](CC(C)C)C(=O)N[C@H](C#N)C[C@@H]3CCNC3=O)cc12 [Compound A-4-b] | Mid
6) CC(C)C[C@H](NC(=O)C(F)(F)F)C(=O)N1C[C@H]2[C@@H]([C@H]1C(=O)N[C@H](C#N)C[C@@H]1CCNC1=O)C2(C)C [Compound H-1-c] | Low
7) CC(C)C[C@H](NC(=O)C1CC1)C(=O)N1C[C@H]2[C@@H]([C@H]1C(=O)N[C@H](C#N)C[C@@H]1CCNC1=O)C2(C)C [Compound H-1-f] | Low
8) CC(C)C[C@H](NC(=O)c1cc2ccccc2[nH]1)C(=O)N1C[C@H]2[C@@H]([C@H]1C(=O)N[C@H](C=O)C(C)(C)C)C2(C)C [Compound G-3-a] | High
9) CC(C)[C@@H](C#N)NC(=O)[C@@H]1[C@@H]2[C@H](CN1C(=O)[C@@H](NC(=O)C(F)(F)F)C1CC1)C2(C)C [Compound F-4-a] | Mid
10) C[C@@H](C=O)NC(=O)[C@@H]1[C@@H]2[C@H](CN1C(=O)[C@@H](NC(=O)C(F)(F)F)C1CC1)C2(C)C [Compound F-3-c] | Low
11) CC(C)C[C@H](CC(=O)[C@@H](NC(=O)OCc1ccccc1)[C@@H](C)OC(C)(C)C)C(=O)N[C@H](C=O)C[C@@H]1CCNC1=O [Compound C-1-b] | High
12) CC(C)C[C@H](NC(=O)c1cc2ccccc2[nH]1)C(=O)N[C@@H](C[C@@H]1CCNC1=O)C(=O)CCl [Compound A-1-g] | High
13) CC(C)C[C@H](NC(=O)OCc1ccccc1)C(=O)N[C@H](C#N)C[C@@H]1CCNC1=O [Compound B-1-e] | High
14) CC1(C)[C@@H]2[C@@H](C(=O)N[C@H](C#N)C[C@@H]3CCNC3=O)N(C(=O)[C@@H](NC(=O)C(F)(F)F)C3CC3)C[C@@H]21 [Compound D-2-a] | Low
15) CC(C)C[C@H](NC(=O)c1cc2ccccc2[nH]1)C(=O)N1C[C@H]2[C@@H]([C@H]1C(=O)N[C@H](C(=O)CCl)C(C)C)C2(C)C [Compound G-2-c] | High
16) CC(C)C[C@H](NC(=O)c1cc2c(F)cccc2[nH]1)C(=O)N[C@H](C=O)C[C@@H]1CCNC1=O [Compound A-3-c] | Low
17) C[C@@H](OC(C)(C)C)[C@H](NC(=O)OCc1ccccc1)C(=O)N[C@@H](CC1CCCCC1)C(=O)N[C@H](C=O)C[C@@H]1CCNC1=O [Compound C-2-b] | High
18) CC(C)C[C@@H](NC(=O)c1cc2c(F)cccc2[nH]1)C(=O)N[C@H](C#N)C[C@@H]1CCNC1=O [Compound A-3-b] | Mid
19) CC(C)C[C@H](NC(=O)c1cc2ccccc2[nH]1)C(=O)N1C[C@H]2[C@@H]([C@H]1C(=O)N[C@@H](C[C@@H]1CCNC1=O)C(=O)CO)C2(C)C [Compound G-1-e] | Mid
20) CC(C)C[C@H](NC(=O)c1cc2ccccc2[nH]1)C(=O)N1C[C@H]2[C@@H]([C@H]1C(=O)N[C@H](C=O)C[C@@H]1CCNC1=O)C2(C)C [Compound G-1-a] | Mid
21) CC(C)C[C@H](NC(=O)c1cc2ccccc2[nH]1)C(=O)N1C[C@H]2[C@@H]([C@H]1C(=O)N[C@H](C#N)C(C)(C)C)C2(C)C [Compound G-3-b] | High

----------
- Assay type: in vitro ADME
- Run Conditions: extraction ratio, compound at 1 uM, beagle dog liver microsomes 0.5 mg/mL
Reported Liver Microsomal Stability (ER) Beagle dog by item:
Metric: Liver Microsomal Stability (ER) Beagle dog

1) COc1cccc2[nH]c(C(=O)N[C@@H](CC(C)C)C(=O)N[C@@H](C[C@@H]3CCNC3=O)C(=O)CO)cc12 | 0.07
2) Cc1cccc2[nH]c(C(=O)N[C@@H](CC(C)C)C(=O)N[C@@H](C[C@@H]3CCNC3=O)C(=O)CCl)cc12 | 0.72
3) CC(C)C[C@H](NC(=O)C(F)F)C(=O)N1C[C@H]2[C@@H]([C@H]1C(=O)N[C@H](C#N)C[C@@H]1CCNC1=O)C2(C)C | 0.05
4) CC(C)C[C@H](NC(=O)c1cc2ccccc2[nH]1)C(=O)N1C[C@H]2[C@@H]([C@H]1C(=O)N[C@H](C#N)C[C@@H]1CCNC1=O)C2(C)C | 0.33
5) CC(C)C[C@H](NC(=O)c1cc2c(F)cccc2[nH]1)C(=O)N[C@@H](C[C@@H]1CCNC1=O)C(=O)CO | 0.05
6) CC(C)(C)[C@H](NC(=O)C(F)(F)F)C(=O)N1C[C@H]2[C@@H]([C@H]1C(=O)N[C@H](C=O)C[C@@H]1CCNC1=O)C2(C)C | 0.01

----------
- Type: in vitro ADME
- Run Conditions: extraction ratio, compound at 1 uM, beagle dog liver microsomes 0.5 mg/mL
- Procedure: Metabolic stability of novel protease inhibitors was determined via liver microsomal stability assay. Human, mouse, SD rat, beagle dog or monkey liver microsomes were incubated with the test compound for 5 to 60 minutes at 37° C., and then the remaining parent compound was quantified by LC-MS/MS. […] All samples were centrifuged at 4° C. for 20 minutes at 4,000 rpm. […] Samples were analyzed by LC-MS/MS. […] The half-life and clearance were calculated using the following equations: […]
Metric: Liver Microsomal Stability (ER) Beagle dog

1. CC(C)C[C@H](NC(=O)c1cc2c(F)cccc2[nH]1)C(=O)N[C@H](C#N)C[C@@H]1CCNC1=O | 0.03
2. CC(C)C[C@H](NC(=O)c1cc2ccccc2[nH]1)C(=O)N[C@@H](C[C@@H]1CCNC1=O)C(O)S(=O)(=O)[O-].[Na+] (stereo partly drawn) | 0.04
3. COc1cccc2[nH]c(C(=O)N[C@@H](CC(C)C)C(=O)N[C@@H](C[C@@H]3CCNC3=O)C(=O)CCl)cc12 | 0.80
4. CC(C)C[C@H](NC(=O)c1cc2ccccc2[nH]1)C(=O)N1C[C@H]2[C@@H]([C@H]1C(=O)N[C@@H](C#N)C[C@@H]1CCNC1=O)C2(C)C | 0.30
5. Cc1cccc2[nH]c(C(=O)N[C@@H](CC(C)C)C(=O)N[C@H](C=O)C[C@@H]3CCNC3=O)cc12 | 0.22
6. CC(C)(C)[C@H](NC(=O)C1CC1)C(=O)N1C[C@H]2[C@@H]([C@H]1C(=O)N[C@H](C#N)C[C@@H]1CCNC1=O)C2(C)C | 0.01
